target: rat mGluR5 (Rattus norvegicus (Rat)); assay: Calcium mobilization assay in HEK 293A cells stably expressing rat mGluR5; conditions: HEK cells transfected with rat mGluR5; inhibition of glutamate EC80 response; ± standard error where average of at least three experiments
Sequence (P31424 21-1203): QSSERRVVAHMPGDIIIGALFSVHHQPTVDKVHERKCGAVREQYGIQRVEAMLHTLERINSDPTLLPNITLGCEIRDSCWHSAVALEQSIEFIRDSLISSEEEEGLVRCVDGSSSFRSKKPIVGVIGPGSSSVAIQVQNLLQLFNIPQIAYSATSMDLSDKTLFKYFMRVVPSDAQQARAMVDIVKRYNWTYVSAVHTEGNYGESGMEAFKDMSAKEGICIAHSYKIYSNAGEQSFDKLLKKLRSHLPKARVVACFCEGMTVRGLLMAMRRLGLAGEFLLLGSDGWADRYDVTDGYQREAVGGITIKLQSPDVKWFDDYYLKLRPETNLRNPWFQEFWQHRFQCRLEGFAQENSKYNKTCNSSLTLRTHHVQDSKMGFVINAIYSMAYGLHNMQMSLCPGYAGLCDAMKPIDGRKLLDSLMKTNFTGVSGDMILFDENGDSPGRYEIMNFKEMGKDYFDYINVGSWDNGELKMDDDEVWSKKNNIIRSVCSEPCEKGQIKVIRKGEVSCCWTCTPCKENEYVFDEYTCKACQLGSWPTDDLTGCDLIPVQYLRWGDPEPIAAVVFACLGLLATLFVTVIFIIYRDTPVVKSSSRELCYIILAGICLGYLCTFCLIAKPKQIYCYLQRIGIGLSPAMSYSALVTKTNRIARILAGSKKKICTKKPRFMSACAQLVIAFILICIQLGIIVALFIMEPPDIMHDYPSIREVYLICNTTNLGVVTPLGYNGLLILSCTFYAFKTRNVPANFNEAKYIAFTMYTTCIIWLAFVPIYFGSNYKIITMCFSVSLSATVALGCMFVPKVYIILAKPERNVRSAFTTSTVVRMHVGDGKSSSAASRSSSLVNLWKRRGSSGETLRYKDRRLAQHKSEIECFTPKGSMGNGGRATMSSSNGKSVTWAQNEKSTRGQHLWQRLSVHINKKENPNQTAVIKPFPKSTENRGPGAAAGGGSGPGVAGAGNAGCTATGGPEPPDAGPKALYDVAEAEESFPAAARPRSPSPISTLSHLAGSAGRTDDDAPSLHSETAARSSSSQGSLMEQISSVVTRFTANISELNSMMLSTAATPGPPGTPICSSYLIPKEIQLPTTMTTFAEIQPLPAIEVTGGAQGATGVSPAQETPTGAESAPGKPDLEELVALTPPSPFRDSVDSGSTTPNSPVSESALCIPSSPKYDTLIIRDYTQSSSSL
Response field label takes t when IC50 is strictly below 1000 nM and f in all other cases.

input: Is the reported IC50 for "Cc1csc(NC(=O)c2cc(-c3cnncc3C)cn3ncnc23)n1" strictly below 1000 nM?
output: f

input: Also need "Cc1csc(NC(=O)c2cc(-c3ccc4occc4c3)cn3ncnc23)n1" , thanks.
output: f

input: Also need "Cc1ccncc1-c1cc(C(=O)Nc2ccccn2)c2ncnn2c1" , thanks.
output: t

input: Also need "Cc1cc(-c2cc(C(=O)Nc3nc(C)cs3)c3nccn3c2)[nH]n1" , thanks.
output: f

input: Also need "Cc1csc(NC(=O)c2cc(-c3cccc(F)c3)cn3ncnc23)n1" , thanks.
output: t

input: Also need "Cc1ccc(NC(=O)c2cc(-c3cc(C)n[nH]3)cn3ccnc23)nc1" , thanks.
output: f

input: Also need "Cc1cc(-c2cc(C(=O)Nc3ccccn3)c3nccn3c2)[nH]n1" , thanks.
output: f

input: Also need "Cc1csc(NC(=O)c2cc(-c3ccccc3C)cn3ncnc23)n1" , thanks.
output: f

input: Also need "Cc1csc(NC(=O)c2cc(-c3ccnnc3)cn3ncnc23)n1" , thanks.
output: f

input: Also need "COc1cccc(NC(=O)c2cc(-c3cnccc3C)cn3ncnc23)n1" , thanks.
output: f

input: Also need "Cc1ccc(NC(=O)c2cc(-c3cnccc3C)cn3ncnc23)nc1" , thanks.
output: t

Origin of the recorded values: patent US9550778B2
